# Subject of test: T1, 4H626-bA
# T1 chain: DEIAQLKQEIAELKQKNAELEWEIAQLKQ
# Test details: two-hybrid library CCNG1;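 note: natural log of median RNA to DNA barcode read ratio; higher means stronger binding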
Grouping rule (interaction score): LOW = under -1, MID = from -1 up to -0.4, HIGH = -0.4 and over

DEIAQLKQEIAELKQEIAELKWKNAQLEQ [4H591-bA] ... LOW
DKNAQLKQKIAELKQENAELEWKIAQLKQ [4H3926-bA] ... HIGH
DKNAQLEQKNAELEQEIAELEWKIAQLKQ [4H3462-bA] ... MID
DKNAQLKQEIAELEQENAELKWKIAQLEQ [4H3613-bA] ... MID
DKNAQLEQKNAELEQKIAELKWEIAQLEQ [4H3497-bA] ... LOW
DKNAQLKQEIAELEQKIAELKWENAQLKQ [4H3628-bA] ... LOW
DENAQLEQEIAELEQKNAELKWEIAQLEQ [4H1081-bA] ... MID
DKNAQLEQENAELKQEIAELKWKIAQLEQ [4H3277-bA] ... MID
DKNAQLEQEIAELKQKIAELEWKNAQLEQ [4H3175-bA] ... LOW
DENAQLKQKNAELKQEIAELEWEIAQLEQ [4H1985-bA] ... LOW
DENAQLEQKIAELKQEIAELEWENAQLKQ [4H1348-bA] ... MID
DENAQLKQEIAELEQEIAELEWKNAQLKQ [4H1544-bA] ... MID
DEIAQLKQEIAELKQKNAELEWEIAQLKQ [4H626-bA] ... HIGH
DKNAQLEQEIAELKQENAELKWEIAQLKQ [4H3162-bA] ... HIGH
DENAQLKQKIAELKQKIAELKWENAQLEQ [4H1899-bA] ... LOW
